target: hGKRP_C-His_K326T/K327T (Homo sapiens, UniProt Q14397, K326T/K327T); assay: F1P competition with F6P in the coupled GK assay, using hGKRP_C-His_K326T/K327T; conditions: in the presence of 6 μM F6P, read-out: EC50 of F1P to increase apparent GK activity (inactive GK-GKRP-F6P complex towards free GK)
Sequence (Q14397 with tags, fused parts or gaps K326T/K327T): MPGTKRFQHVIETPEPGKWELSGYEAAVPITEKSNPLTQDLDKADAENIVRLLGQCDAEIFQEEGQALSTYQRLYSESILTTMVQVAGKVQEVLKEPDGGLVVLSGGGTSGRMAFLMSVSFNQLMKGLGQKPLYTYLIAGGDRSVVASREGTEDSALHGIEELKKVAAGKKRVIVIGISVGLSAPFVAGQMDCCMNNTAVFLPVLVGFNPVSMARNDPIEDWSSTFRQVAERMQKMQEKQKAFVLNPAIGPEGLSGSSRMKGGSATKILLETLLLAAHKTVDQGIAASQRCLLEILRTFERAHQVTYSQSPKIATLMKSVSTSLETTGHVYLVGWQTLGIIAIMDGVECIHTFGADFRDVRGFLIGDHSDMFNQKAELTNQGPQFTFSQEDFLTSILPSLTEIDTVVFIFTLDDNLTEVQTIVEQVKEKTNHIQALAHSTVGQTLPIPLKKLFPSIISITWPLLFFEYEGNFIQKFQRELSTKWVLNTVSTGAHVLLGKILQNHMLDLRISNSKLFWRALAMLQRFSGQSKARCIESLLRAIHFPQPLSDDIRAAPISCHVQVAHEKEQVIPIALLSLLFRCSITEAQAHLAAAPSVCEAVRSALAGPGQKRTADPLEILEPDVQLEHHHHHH
attribute-measured: EC50 (µM)
Answer format: numeric, µM implied, no suffix.

q: Quick one: EC50 of O=C(COP(=O)(O)O)[C@@H](O)[C@H](O)[C@H](O)CO [F1P, fructose-1-phosphate] ?
a: 5.08

* * *

target: hGKRP_C-His (Homo sapiens, UniProt Q14397); assay: F1P competition with F6P in the coupled GK assay, using hGKRP_C-His; details: in the presence of 6 μM F6P, read-out: EC50 of F1P to increase apparent GK activity (inactive GK-GKRP-F6P complex towards free GK)
Sequence (Q14397 with tags, fused parts or gaps): as the sequence (Q14397 with tags, fused parts or gaps K326T/K327T) above, with T326K, T327K counted along it
attribute-measured: pEC50
Keep it numeric: pEC50 is minus log10 of the concentration in mol/L.

q: pEC50 for O=C(COP(=O)(O)O)[C@@H](O)[C@H](O)[C@H](O)CO [F1P, fructose-1-phosphate] ?
a: 5.20

Data provenance: patent US20130295666A1
